# measured.target: UniProt P06401
# test.details: Antagonist activity at PR in human T47D cells assessed as inhibition of progesterone-inducted alkaline phosphatase expression after 24 hrs by plate reader analysis
# Format: cell-based
Quick reference: pIC50 of the listed items.
Conceptually, pIC50 converts a concentration in mol/L into minus its log10.

Solved entries (count: 2):
> print(dat)
                               entry.smiles  recorded.endpoint  observed.value
1  CC(=O)N(C)c1ccc(C23CC4CC(CC(c5ccc(C#N)cc5)(C4)C2)C3)cc1              pIC50            7.59
2  CC(=O)Nc1ccc(C23CC4CC(CC(c5ccc(C#N)cc5)(C4)C2)C3)cc1              pIC50            7.23

Problem: Any idea what pIC50 came out for CCCCCC(=O)Nc1ccc(C23CC4CC(CC(c5ccc(C#N)cc5)(C4)C2)C3)cc1 on UniProt P06401?
Result: 6.76

Problem: // next record COC(=O)Nc1ccc(C23CC4CC(CC(c5ccc(C#N)cc5)(C4)C2)C3)cc1
Result: 7.60

Problem: // next record COC(=O)N(C)c1ccc(C23CC4CC(CC(c5ccc(C#N)cc5)(C4)C2)C3)cc1
Result: 7.44

Problem: // next record N#Cc1ccc(C23CC4CC(C2)CC(c2ccc(NC(=O)c5ccccc5)cc2)(C4)C3)cc1
Result: 6.39

Problem: // next record CN(c1ccc(C23CC4CC(CC(c5ccc(C#N)cc5)(C4)C2)C3)cc1)S(C)(=O)=O
Result: 7.13

Problem: // next record CCN(C(C)=O)c1ccc(C23CC4CC(CC(c5ccc(C#N)cc5)(C4)C2)C3)cc1
Result: 7.40

Problem: // next record N#Cc1ccc(C23CC4CC(C2)CC(c2ccc([N+](=O)[O-])cc2)(C4)C3)cc1
Result: 7.28

Problem: // next record CS(=O)(=O)Nc1ccc(C23CC4CC(CC(c5ccc(C#N)cc5)(C4)C2)C3)cc1
Result: 6.92

Problem: // next record N#Cc1ccc(C23CC4CC(CC(c5ccc(N)cc5)(C4)C2)C3)cc1
Result: 6.75

Problem: // next record CN(C(=O)c1ccccc1)c1ccc(C23CC4CC(CC(c5ccc(C#N)cc5)(C4)C2)C3)cc1
Result: 6.51

Problem: // next record CCCCCC(=O)N(C)c1ccc(C23CC4CC(CC(c5ccc(C#N)cc5)(C4)C2)C3)cc1
Result: 6.90

====

Quick reference: IC50 of the listed items.
# measured.target: UniProt:P06401
# Sequence (P06401 whole entry): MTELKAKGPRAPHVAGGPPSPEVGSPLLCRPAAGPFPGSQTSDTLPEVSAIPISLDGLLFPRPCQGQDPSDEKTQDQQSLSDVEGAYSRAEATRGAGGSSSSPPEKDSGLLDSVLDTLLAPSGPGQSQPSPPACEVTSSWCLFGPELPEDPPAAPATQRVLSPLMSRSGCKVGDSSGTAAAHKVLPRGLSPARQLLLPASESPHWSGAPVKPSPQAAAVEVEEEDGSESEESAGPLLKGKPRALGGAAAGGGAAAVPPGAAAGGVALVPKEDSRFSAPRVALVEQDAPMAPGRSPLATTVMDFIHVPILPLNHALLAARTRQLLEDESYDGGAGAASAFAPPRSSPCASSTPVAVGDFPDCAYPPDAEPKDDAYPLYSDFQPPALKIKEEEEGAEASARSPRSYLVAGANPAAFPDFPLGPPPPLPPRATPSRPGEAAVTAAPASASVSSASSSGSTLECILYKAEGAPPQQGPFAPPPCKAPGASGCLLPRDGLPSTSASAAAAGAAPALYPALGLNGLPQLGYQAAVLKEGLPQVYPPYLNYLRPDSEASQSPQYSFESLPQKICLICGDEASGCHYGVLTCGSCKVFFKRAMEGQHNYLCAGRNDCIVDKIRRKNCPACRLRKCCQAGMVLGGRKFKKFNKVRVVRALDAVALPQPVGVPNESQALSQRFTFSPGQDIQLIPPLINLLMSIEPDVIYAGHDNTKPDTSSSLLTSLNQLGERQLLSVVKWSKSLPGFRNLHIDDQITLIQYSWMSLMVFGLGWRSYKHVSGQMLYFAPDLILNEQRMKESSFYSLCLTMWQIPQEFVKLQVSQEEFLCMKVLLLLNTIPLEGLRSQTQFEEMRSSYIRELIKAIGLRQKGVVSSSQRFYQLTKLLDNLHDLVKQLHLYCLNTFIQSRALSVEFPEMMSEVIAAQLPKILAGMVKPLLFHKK
# test.details: Displacement of [1,2,6,7-3H]progesterone from human recombinant PR LBD after 24 hrs by liquid scintillation counting analysis
Give the number; nM is assumed, so skip it.

> print(dat)
                               entry.smiles  recorded.endpoint  observed.value
1  CC(=O)N(C)c1ccc(C23CC4CC(CC(c5ccc(C#N)cc5)(C4)C2)C3)cc1               IC50              53

Now turn to the next compound.
Problem: Any idea what its IC50 is? The compound is CN(C(=O)c1ccccc1)c1ccc(C23CC4CC(CC(c5ccc(C#N)cc5)(C4)C2)C3)cc1
Result: 228

Just for reference, ChEMBL document CHEMBL3396990 is where these values come from.
